system: SNB-75 CNS; assay: NCI tumour cell line growth inhibition, 48 h
Where a SMILES comes first, the peptide text is derived from it. The star is where a group is joined. Boc = CC(C)(C)OC(=O)*; OcHex = C1CCC(O*)CC1
Below, each of the compounds is paired with its reported GI50 value.

Compound: CC(C)CC(NC(=O)OC(C)(C)C)C(=O)NC(CCC(=O)OC1CCCCC1)C(N)=O (stereo not drawn) (Boc-Leu-Glu(OcHex)-NH2; configuration not given here)
Assay Value: 71.5 µg/mL
//
Compound: CC(=O)Oc1ccc(C2=Cc3ccc(OC(C)=O)cc3OC2C)cc1 (configuration not stated)
Assay Value: 3.48 µM
//
Compound: C=CCN(CC=C)C(=O)c1cc(C)nc2c1c(=O)n(-c1ccccc1)c(=O)n2CCCN1CCN(c2ccccc2OC)CC1
Assay Value: 31.4 µM

Exam item: Item COc1cc(C(=O)/C=C/c2cccc(Nc3ccnc4cc(Cl)ccc34)c2)cc(OC)c1OC with SNB-75 CNS - GI50?
Marked response: 1.31 µM

Exam item: # get_value(readout= GI50, system= SNB-75 CNS) for C(=Nc1nc(SCc2ccccc2)nc2[nH]ncc12)c1cccs1
Marked response: > 100 µM

Exam item: Form field - read-out: GI50; system: SNB-75 CNS; submitted item: C#Cc1ccc(-n2c(/C=C/c3ccc(O)cc3)nc3ncccc3c2=O)cc1
Marked response: 0.948 µM

Exam item: Query GI50 on SNB-75 CNS for COc1ccc(C(O)c2cc3c(N)c(C(=O)Nc4cccc5ccccc45)sc3nc2C)cc1 (configuration not stated)
Marked response: 0.39 µM
